- tested on: HLA-B*39:01
- assay explanation: IEDB peptide-MHC binding, purified MHC/competitive/fluorescence; filed as Kd, often an IC50 or EC50 that approximates it; bounds were set here for any values at or beyond the usual limits of such assays
- study conditions: source organism: Coxiella burnetii 'MSU Goat Q177'
measured property: Kd

1. YYLIKYLHV ... ≥ 20 µM

====

- tested on: HLA-A*24:02
- assay explanation: IEDB peptide-MHC binding, purified MHC/direct/fluorescence; filed as Kd, often an IC50 or EC50 that approximates it; bounds were set here for any values at or beyond the usual limits of such assays
- study conditions: source organism: Influenza A virus (A/WSN/1933(H1N1))
pKd: −log10 of the molar value.
measured property: pKd

1. NLEPGTFDL ... ≤ 4.70
